Hi there, I'd appreciate the recorded Plant response rating, Corn for every entry that follows.
# Tested on: corn (Zea mays)
# test-name: Test A pre-/postemergence plant response
# Type: in vivo
# test-settings: Postemergence, 125 g ai/ha; 0 to 100 scale where 0 is no effect and 100 is complete control
Provide a numeric answer; units are not to be included.

Could you share what Plant response rating, Corn was measured for CCc1ccccc1-n1c(-c2ccccc2)ncc(C(=O)C2=C(O)CCCC2=O)c1=O [Compound 255] , tested on corn (Zea mays)? 30

What about this molecule? COCCn1c(-c2cccc(Cl)c2)ncc(C(=O)C2=C(O)CCCC2=O)c1=O [Compound 147] 20

Proceed to CCn1c(-c2cccc(C)c2)ncc(C(=O)C2=C(O)CCCC2=O)c1=O [Compound 115] 0

Moving on to CCCn1c(-c2ccc3c(c2)OCCO3)ncc(C(=O)C2=C(O)CCCC2=O)c1=O [Compound 149] 0

Can you handle CCc1cccc(-c2ncc(C(=O)C3=C(O)CCCC3=O)c(=O)n2C2CCCCC2)c1 [Compound 194] next? 0

Try this molecule too: CCCCn1c(-c2cccc(C)c2)ncc(C(=O)C2=C(O)CCCC2=O)c1=O [Compound 116] 0

// repeat for CC1(C)CC(=O)C(C(=O)c2cnc(-c3ccccc3)n(-c3ccccc3)c2=O)=C(O)C1 [Compound 225] and report 10

How about this molecule: Cc1cc(-n2c(-c3cccc(F)c3)ncc(C(=O)C3=C(O)CCCC3=O)c2=O)ccc1F [Compound 191] 0

And CCCn1c(-c2cccs2)ncc(C(=O)c2cnn(CC)c2O)c1=O [Compound 221] ? 0

From: patent US8952024B2
